Target: Squalene synthase (Rattus norvegicus)
Sequence (Q02769 whole entry): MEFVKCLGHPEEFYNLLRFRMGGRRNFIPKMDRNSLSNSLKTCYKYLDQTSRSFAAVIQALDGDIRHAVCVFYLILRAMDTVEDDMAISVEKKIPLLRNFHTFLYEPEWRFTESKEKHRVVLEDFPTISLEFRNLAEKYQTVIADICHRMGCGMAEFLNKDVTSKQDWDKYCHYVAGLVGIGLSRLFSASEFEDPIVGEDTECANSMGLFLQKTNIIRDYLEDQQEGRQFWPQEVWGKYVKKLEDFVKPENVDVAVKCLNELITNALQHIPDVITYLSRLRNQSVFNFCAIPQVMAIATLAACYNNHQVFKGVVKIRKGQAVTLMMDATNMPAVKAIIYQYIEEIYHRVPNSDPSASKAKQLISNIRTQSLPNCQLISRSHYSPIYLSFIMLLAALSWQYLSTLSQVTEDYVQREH
pIC50: −log10 of the molar value.
So basically: pIC50 at 6 or higher? That is YES. Lower than 6? That is NO.

1. C=C(CC[C@]12O[C@H](C(=O)O)[C@@](O)(C(=O)O)[C@](C(=O)O)(O1)[C@H](O)[C@H]2O)[C@@H](OC)[C@H](C)Cc1ccccc1 | YES
2. C=C(CC[C@]12O[C@H](C(=O)O)[C@@](O)(C(=O)O)[C@](C(=O)O)(O1)[C@H](O)[C@H]2O)[C@@H](OCC1CC1)[C@H](C)Cc1ccccc1 | YES
3. C=C(CC[C@]12O[C@H](C(=O)O)[C@@](O)(C(=O)O)[C@](C(=O)O)(O1)[C@H](O)[C@H]2O)[C@@H](OC(=O)C(C)(C)C)[C@H](C)Cc1ccccc1 | NO
4. C=C(CC[C@]12O[C@H](C(=O)O)[C@@](O)(C(=O)O)[C@](C(=O)O)(O1)[C@H](O)[C@H]2O)[C@@H](NC(C)=O)[C@H](C)Cc1ccccc1 | NO
